Data origin: ChEMBL document CHEMBL1156852

- protocol_notes: Toxicity against […] assessed as cell growth
- Format: cell-based
- Design: concentration or dose not given beside the values
TRUE if Activity is below 30%. FALSE if not; exact matches included in FALSE.

>>> df
                                     smiles  discrete_label
0  COc1cc(/C=C/C(=O)c2ccc(Cl)cc2)cc(OC)c1OC           FALSE
1  COc1ccc(/C=C/C(=O)c2ccc(Cl)cc2Cl)c(OC)c1            TRUE
2  COc1ccc(/C=C/C(=O)c2ccc(OC)cc2OC)c(OC)c1           FALSE
3      COc1cc(/C=C/C(=O)c2ccccc2)cc(OC)c1OC           FALSE
4        COc1ccc(/C=C/C(=O)c2ccccc2)c(OC)c1           FALSE
5    COc1ccc(/C=C/C(=O)c2ccc(Cl)cc2)c(OC)c1            TRUE

Query string: For this molecule, is Activity lower than 30%? COc1ccc(C(=O)/C=C/c2ccc(OC)cc2OC)cc1
Result string: TRUE

Query string: And for C[C@@H]1C[C@H]2[C@@H]3CCC4=CC(=O)C=C[C@]4(C)[C@@]3(F)[C@@H](O)C[C@]2(C)[C@@]1(O)C(=O)CO ?
Result string: TRUE
